Cited source for all entries: the RNAGym collection of RNA variant scans (doi:10.7554/elife.80360)

Listing of recorded self-cleavage by entry.
B1: HDV Ribozyme (parent)
chain: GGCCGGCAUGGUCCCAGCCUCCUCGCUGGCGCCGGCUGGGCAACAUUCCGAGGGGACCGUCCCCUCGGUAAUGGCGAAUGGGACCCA

Variants of: B1
Test: self-cleavage, relative activity (ratio to wild type); higher = more cleavage; co-transcriptional

Noted for C15U G38U : its self-cleavage reads 0.259

Noted for U27G U46A : its self-cleavage reads 0.332

Noted for A43C C49U : its self-cleavage reads 0.684

Noted for C62U G81U : its self-cleavage reads 0.529

Noted for C15A U60C : its self-cleavage reads 0.538

Noted for G17C G74C : its self-cleavage reads 0

Noted for C36G G81A : its self-cleavage reads 0.0545

Noted for A8U U46C : its self-cleavage reads 0.554

Noted for A42C A70C : its self-cleavage reads 0.0875

Noted for G6A G28C : its self-cleavage reads 0

Noted for U23C G28C : its self-cleavage reads 0.0639
